measurement.name: melting point

Consider the worked cases shown below.
compound: COc1ccc2[nH]cc(-c3cncn3CCc3c[nH]c4ccccc34)c2c1 [Compound 87]
melting point: 152 to 153 °C

compound: Clc1ccc2[nH]cc(-c3cncn3Cc3c[nH]c4ccccc34)c2c1 [Compound 76]
melting point: 107 to 108 °C

Consider now this further compound.
Recorded melting point for Clc1ccc2c(-c3cncn3Cc3ccc(I)cc3)c[nH]c2c1 [Compound 8] , please?
> 200 °C

====

measurement.name: melting point

Field: example entries. Status: answers known.
compound: Fc1cccc2c(-c3cncn3CCc3ccccc3)c[nH]c12 [Compound 52]
experimental.value: 45 to 46 °C

compound: Brc1ccc2c(-c3cncn3CCc3ccc4c(c3)OCO4)c[nH]c2c1 [Compound 42]
experimental.value: 194 to 195 °C

compound: COc1ccc(CCn2cncc2-c2c[nH]c3ccc(OC)cc23)cc1 [Compound 71]
experimental.value: 48 to 49 °C

compound: COc1ccc(OC)c(CCn2cncc2-c2c[nH]c3ccc(F)cc23)c1 [Compound 30]
experimental.value: 150 to 151 °C

compound: COc1ccc(Cn2cncc2-c2c[nH]c3cc(OC)ccc23)cc1 [Compound 65]
experimental.value: 65 to 66 °C

Need melting point, item Brc1ccc2[nH]cc(-c3cncn3Cc3ccc(I)cc3)c2c1 [Compound 9]
> 200 °C

Can you handle COc1ccc(OC)c(CCn2cncc2-c2c[nH]c3ccc(Br)cc23)c1 [Compound 34] next?
141 to 142 °C

====

Cryptococcus neoformans ATCC208821: recorded MIC for assorted compounds

Known results for compounds:
smiles.data: COc1ccc(CCn2cncc2-c2c[nH]c3ccccc23)cc1
MIC: > 32 µg/mL

smiles.data: c1ccc(-c2cncn2Cc2c[nH]c3ccccc23)cc1
MIC: ≤ 0.25 µg/mL

smiles.data: COc1ccc(OC)c(CCn2cncc2-c2c[nH]c3ccc(Cl)cc23)c1
MIC: > 32 µg/mL

smiles.data: COc1ccc(OC)c(CCn2cncc2-c2c[nH]c3ccc(Br)cc23)c1
MIC: > 32 µg/mL

smiles.data: COc1ccc(OC)c(CCn2cncc2-c2c[nH]c3ccccc23)c1
MIC: > 32 µg/mL

Record request: MIC value, item `Fc1ccc2c(-c3cncn3CCc3ccccc3)c[nH]c2c1`
> 32 µg/mL

Now consider `COc1ccc(CCn2cncc2-c2c[nH]c3cc(F)ccc23)cc1` .
> 32 µg/mL

What do we get for `Clc1ccc2[nH]cc(-c3cncn3CCc3ccccc3)c2c1` ?
> 32 µg/mL

`COc1ccc(CCn2cncc2-c2c[nH]c3ccc(Br)cc23)cc1` ?
> 32 µg/mL

Okay, and `COc1ccc2c(-c3cncn3CCc3ccccc3)c[nH]c2c1` ?
≤ 0.25 µg/mL

And what about the compound `COc1ccc(Cn2cncc2-c2c[nH]c3ccccc23)cc1` ?
> 32 µg/mL

How about `COc1ccc(CCn2cncc2-c2c[nH]c3ccc(Cl)cc23)cc1` ?
> 32 µg/mL

Another: `c1ccc(CCn2cncc2-c2c[nH]c3ccccc23)cc1`
> 32 µg/mL

====

# CC50 at 20 h values compiled below
test: HEK293 cytotoxicity assay (resazurin); assay type: cell-based, human; conditions: human; concentration at 50% cytotoxicity on HEK293 cells; mean (n = 2)

smiles.data: c1ccc(-c2cncn2Cc2c[nH]c3ccccc23)cc1
CC50 at 20 h: > 32 µg/mL

smiles.data: COc1ccc(CCn2cncc2-c2c[nH]c3ccc(Cl)cc23)cc1
CC50 at 20 h: > 32 µg/mL

What value of CC50 at 20 h has been recorded for this entry: `COc1ccc(OC)c(CCn2cncc2-c2c[nH]c3ccc(Cl)cc23)c1`
> 32 µg/mL
